- assay_system: MAGI2_4, Q86UL8
- Sequence (Q86UL8 772-865): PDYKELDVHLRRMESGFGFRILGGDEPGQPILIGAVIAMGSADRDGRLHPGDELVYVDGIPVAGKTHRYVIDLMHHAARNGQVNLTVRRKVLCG
- test_details: holdup assay
- Parameters: key: below the threshold = too weak to quantify, mostly under pKd 3.1 to 4
- cond: plain residues with an end cap or a label only (N-terminal biotin on a linker: ahx)
observation_type: pKd

Answered cases to consult:
• LSDPSVSTVV [GRIN1, Q05586] = 3.83
• ESLLLGPSNF [SHROOM4, Q9ULL8] = below the threshold
• RRRKRKRTYL [HPV49-L2, P36762] = below the threshold
• SDSSGQEYSL [KCTD3, Q9Y597] = below the threshold
• NRKREIFSNF [NHERF2, Q15599] = below the threshold

Measured pKd of HNAFLSVTTV [PDZRN4, Q6ZMN7] : 3.49

Measured pKd of RAVEEEESRF [PSCDBP, O60759] : below the threshold

Measured pKd of TVICWPGSLV [LNX2, Q8N448] : 5.22

Measured pKd of PSASCAVTAA [PDLIM4, P50479;P50479-2] : below the threshold

Measured pKd of GYDWGPATDL [TJP3, O95049] : 3.49
